Counter-ions that a name gives are not always drawn.
melting point: recorded values

- compound: "O=C1Nc2ccc(F)cc2C1CCCCN1CCN(c2ccc(Cl)cc2)CC1 (centres unmarked) (as salt: hydrochloride) [Example 7, monohydrochloride]"
  endpoint name: "melting point"
  experimental result: "193 to 196 °C"
- compound: "O=C1Nc2ccccc2C1CCCCN1CCN(c2ccc(Cl)cc2)CC1 (centres unmarked)"
  endpoint name: "melting point"
  experimental result: "136 to 137 °C"
- compound: "O=C1Nc2ccccc2C1CCCCN1CCN(c2ccccc2)CC1 (centres unmarked)"
  endpoint name: "melting point"
  experimental result: "110 to 113 °C"
- compound: "O=C1Nc2ccc(F)cc2C1CCCCN1CCN(c2ccccc2)CC1 (centres unmarked)"
  endpoint name: "melting point"
  experimental result: "140 to 144 °C"

Pending compound:
IN: Quick one: melting point of O=C1Nc2ccccc2C1CCCCN1CCN(c2cccc(Cl)c2)CC1 (centres unmarked) ?
OUT: 112 to 114 °C
